# TARGET_SYSTEM: human recombinant FAAH (Homo sapiens (Human), UniProt O00519)
# Sequence (O00519 whole entry): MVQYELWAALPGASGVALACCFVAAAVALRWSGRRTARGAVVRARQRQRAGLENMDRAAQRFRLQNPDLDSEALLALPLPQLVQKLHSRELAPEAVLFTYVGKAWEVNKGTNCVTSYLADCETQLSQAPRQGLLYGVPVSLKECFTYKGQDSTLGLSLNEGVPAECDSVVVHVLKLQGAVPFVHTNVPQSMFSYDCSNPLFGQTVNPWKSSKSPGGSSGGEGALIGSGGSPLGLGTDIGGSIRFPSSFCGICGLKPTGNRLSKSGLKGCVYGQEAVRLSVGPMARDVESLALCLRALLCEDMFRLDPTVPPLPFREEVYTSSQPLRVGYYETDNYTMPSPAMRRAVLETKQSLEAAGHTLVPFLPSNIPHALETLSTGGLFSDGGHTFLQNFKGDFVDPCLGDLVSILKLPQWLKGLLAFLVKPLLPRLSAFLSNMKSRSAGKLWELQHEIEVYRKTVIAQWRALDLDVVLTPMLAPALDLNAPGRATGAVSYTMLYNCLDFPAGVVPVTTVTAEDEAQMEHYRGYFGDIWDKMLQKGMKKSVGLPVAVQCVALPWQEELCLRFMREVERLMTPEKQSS
# ASSAY_METHOD_TEXT: In vitro inhibition of FAAH activity (fluorescent inhibitor screening kit, AMC arachidonoyl amide)
# Assay type: biochemical
# SETTINGS: human recombinant FAAH; read-out: Inhibition on FAAH activity (IC50)
pIC50: −log10 of the molar value.
OBSERVATION_TYPE: pIC50

Observe how each entry below is paired with its result.
What value of pIC50 has been recorded for this entry: COc1ccc(OC(=O)NC2CCC(C)CC2)cc1-c1cncc(-c2nnco2)c1 (centres unmarked) 6.00 to 7.00

Then this compound: COc1ccc(OC(=O)NC2CCCC2)cc1-c1cncc(-c2ccc[nH]2)c1 < 6.00

Then this compound: O=C(NC1CCCCC1)Oc1cccc(-c2cncc(-c3nncs3)c2)c1 < 6.00

New cases:
What value of pIC50 has been recorded for this entry: O=C(NC1CCCCC1)Oc1cccc(-c2cncc(C(F)(F)F)c2)c1 6.00 to 7.00

Then this compound: O=C(NC1CCCCCC1)Oc1cccc(-c2cc(-c3nnco3)ccn2)c1 7.00 to 8.00
